# TARGET UNDER TEST: FGFR1 (Homo sapiens)
# Construct: made in house; host or cells: E. coli (BL21-derived), T7 phage
# Sequence (P11362 22-822): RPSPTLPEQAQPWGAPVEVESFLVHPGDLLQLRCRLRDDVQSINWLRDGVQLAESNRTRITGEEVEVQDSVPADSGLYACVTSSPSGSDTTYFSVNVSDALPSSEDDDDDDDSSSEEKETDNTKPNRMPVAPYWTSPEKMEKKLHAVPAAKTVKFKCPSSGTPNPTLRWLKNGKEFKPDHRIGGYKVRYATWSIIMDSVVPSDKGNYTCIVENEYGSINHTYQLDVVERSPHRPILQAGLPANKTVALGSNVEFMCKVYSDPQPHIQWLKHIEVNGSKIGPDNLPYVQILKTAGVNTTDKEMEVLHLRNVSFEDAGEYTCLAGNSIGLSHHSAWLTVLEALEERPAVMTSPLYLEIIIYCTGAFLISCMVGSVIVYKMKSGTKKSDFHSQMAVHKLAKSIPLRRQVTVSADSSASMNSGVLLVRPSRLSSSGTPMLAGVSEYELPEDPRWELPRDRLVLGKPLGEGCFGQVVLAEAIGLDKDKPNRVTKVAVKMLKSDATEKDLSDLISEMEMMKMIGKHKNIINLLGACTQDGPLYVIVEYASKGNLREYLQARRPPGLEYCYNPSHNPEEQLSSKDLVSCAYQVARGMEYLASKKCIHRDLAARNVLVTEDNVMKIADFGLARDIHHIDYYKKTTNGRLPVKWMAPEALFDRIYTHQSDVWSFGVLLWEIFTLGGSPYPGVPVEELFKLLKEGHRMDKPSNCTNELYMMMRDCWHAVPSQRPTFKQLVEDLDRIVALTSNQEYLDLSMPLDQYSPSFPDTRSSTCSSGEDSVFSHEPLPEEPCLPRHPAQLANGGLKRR
# ASSAY: Kinase binding assay (kinase-tagged T7 phage, affinity beads, qPCR), Kd
# CONDITION CONTEXT: read-out: FGFR1 (Kd nM)
REPORTED METRIC: Kd

Worked set:
COMPOUND	RESULT
C[C@@H](Oc1ccc2[nH]nc(-c3ccc(N4CC(C)(CN(C)S(C)(=O)=O)C4)nc3)c2c1)c1c(Cl)cncc1Cl [Example 74]	1 to 50 nM
Cc1ncc(Cl)c([C@@H](C)Oc2ccc3[nH]nc(-c4cnc(N5CC(C)(OC6CCC6)C5)c(C#N)c4)c3c2)c1Cl [Example 46]	> 1000 nM
C[C@@H]1CN(C2(C)CN(c3ccc(-c4n[nH]c5ccc(O[C@H](C)c6c(Cl)cncc6Cl)cc45)cn3)C2)CCO1 [Example 211]	1 to 50 nM
C[C@@H](Oc1ccc2[nH]nc(-c3cnc(N4CC(C)(CN(C)S(C)(=O)=O)C4)c(C#N)c3)c2c1)c1c(Cl)cncc1Cl [Example 23]	1 to 50 nM
C[C@@H](Oc1ccc2[nH]nc(-c3ccc(N4CC(C)(N5CCC5)C4)nc3)c2c1)c1c(Cl)cncc1Cl [Example 116]	1 to 50 nM
COc1cc2[nH]nc(-c3cnc(N4CC(C)(NCC5CC5)C4)c(C#N)c3)c2cc1O[C@@H](C)c1c(Cl)cncc1Cl [Example 333]	300 to 1000 nM
COCCN(C)C1(C)CN(c2ncc(-c3n[nH]c4ccc(O[C@H](C)c5c(Cl)cncc5Cl)cc34)cn2)C1 [Example 79]	1 to 50 nM
C[C@@H](Oc1ccc2[nH]nc(-c3cnc(N4CC(C)(N5CCC5)C4)c(F)c3)c2c1)c1c(Cl)cncc1Cl [Example 103]	1 to 50 nM

// field: Kd; key: C[C@@H](Oc1ccc2[nH]nc(-c3cnc(N4CC(C)(N5CCOCC5)C4)c(F)c3)c2c1F)c1c(Cl)cncc1Cl [Example 183] ; value = 300 to 1000 nM

// field: Kd; key: COc1cc2[nH]nc(-c3cnc(N4CC(N)(C5CCC5)C4)c(C#N)c3)c2cc1O[C@H](C)c1c(Cl)cncc1Cl [Example 356] ; value = 1 to 50 nM

// field: Kd; key: C[C@@H](Oc1ccc2[nH]nc(-c3cnc(N4CC(C)(NCC(F)F)C4)c(C#N)c3)c2c1)c1c(Cl)cncc1Cl [Example 22] ; value = 50 to 300 nM

// field: Kd; key: C[C@@H](Oc1ccc2[nH]nc(-c3cnc(N4CC(C)(NCCC(F)F)C4)c(C#N)c3)c2c1)c1c(Cl)cncc1Cl [Example 21] ; value = 50 to 300 nM

// field: Kd; key: CNC1(C)CN(c2ncc(-c3n[nH]c4ccc(O[C@@H](C)c5c(Cl)cncc5Cl)cc34)cc2F)C1 [Example 205] ; value = 50 to 300 nM

// field: Kd; key: C[C@@H](Oc1ccc2[nH]nc(-c3cnc(N4CC(C)(NCC(C)(C)O)C4)c(F)c3)c2c1F)c1c(Cl)cncc1Cl [Example 170] ; value = > 1000 nM

---

# Tested on: KG-1 cell line (FGFR 1-fusion)
# ASSAY: Cancer cell line cell viability assay (Cell Titer-Glo), 72 hr
# Assay type: cell-based
# CONDITION CONTEXT: Homo sapiens, KG-1, KG-1 cell line (FGFR1-fusion)
pIC50: −log10 of the molar value.
Form field: pIC50 (one value per entry).

Worked set:
MOL	REPORTED METRIC	RESULT
CC(C)CC1(N)CN(c2ncc(-c3n[nH]c4ccc(O[C@H](C)c5c(Cl)cncc5Cl)cc34)cc2F)C1	pIC50	6.00 to 6.70
COc1cc2[nH]nc(-c3cnc(N4CC(C)(N(C)CC5CC5)C4)c(C#N)c3)c2cc1O[C@H](C)c1c(Cl)cncc1Cl	pIC50	6.00 to 6.70
CCC1(N)CN(c2ncc(-c3n[nH]c4cc(OC)c(O[C@H](C)c5c(Cl)cncc5Cl)cc34)cc2C#N)C1	pIC50	7.30 to 10.00

KG-1 cell line (FGFR 1-fusion) assay, compound CCCNC1(C)CN(c2ncc(-c3n[nH]c4cc(OC)c(O[C@H](C)c5c(Cl)cncc5Cl)cc34)cc2C#N)C1 , recorded pIC50 = 6.70 to 7.30

KG-1 cell line (FGFR 1-fusion) assay, compound C[C@@H](Oc1ccc2[nH]nc(-c3ccc(N4CC(C)(NC5CCC5)C4)nc3)c2c1)c1c(Cl)cncc1Cl , recorded pIC50 = 6.70 to 7.30

KG-1 cell line (FGFR 1-fusion) assay, compound C[C@@H](Oc1ccc2[nH]nc(-c3cnc(N4CC(C)(N5C[C@H]6C[C@@H]5CO6)C4)c(F)c3)c2c1)c1c(Cl)cncc1Cl , recorded pIC50 = 6.70 to 7.30
